Give measured Kd for each item. Keep answers brief.
target_under_test: cyno ST2L (cyno)
assay_name: affinity table; method not stated
Give the value in nM but do not write nM after it.

IN: Entry STLM210 (antibody, from another filing, V domains shown) VH: EVQLLESGGGLVQPGGSLRLSCAASGFTFSDDAMIWVRQAPGKGLEWVSYIGGNGGTTYYADSVKGRFTISRDNSKNTLYLQMNSLRAEDTAVYYCARDPWSTEGSFFVLDYWGQGTLVTVSS VL: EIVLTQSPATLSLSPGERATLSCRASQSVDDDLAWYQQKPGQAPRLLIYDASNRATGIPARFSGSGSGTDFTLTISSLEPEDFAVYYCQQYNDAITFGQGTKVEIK has what Kd?
OUT: 0.009

IN: Would you mind doing STLM228 (antibody, from another filing, V domains shown) VH: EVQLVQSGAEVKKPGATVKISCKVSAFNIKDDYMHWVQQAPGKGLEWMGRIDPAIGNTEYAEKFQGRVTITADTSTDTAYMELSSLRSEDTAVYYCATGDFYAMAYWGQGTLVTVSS VL: DIQMTQSPSTLSASVGDRVTITCITNTDIDDVIHWYQQKPGKAPKLLIYEGNTLRPGVPSRFSGSGSGTEFTLTISSLQPDDFATYYCLQSDNMLTFGQGTKLEIK as well?
OUT: 0.155

IN: Also check STLM226 (antibody, from another filing, V domains shown) VH: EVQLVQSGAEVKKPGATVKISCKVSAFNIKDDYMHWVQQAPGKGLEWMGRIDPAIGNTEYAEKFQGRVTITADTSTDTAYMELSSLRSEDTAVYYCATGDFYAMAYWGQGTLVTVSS VL: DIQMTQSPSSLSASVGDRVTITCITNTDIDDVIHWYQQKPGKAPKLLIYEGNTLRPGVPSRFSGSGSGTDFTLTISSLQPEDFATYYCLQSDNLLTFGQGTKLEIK
OUT: 0.301

IN: Query STLM211 (antibody, from another filing, V domains shown) VH: EVQLLESGGGLVQPGGSLRLSCAASGFTFSGYAMIWVRQAPGKGLEWVSYIEGEGGETYYADSVKGRFTISRDNSKNTLYLQMNSLRAEDTAVYYCARDPWSTEGSFFVLDYWGQGTLVTVSS VL: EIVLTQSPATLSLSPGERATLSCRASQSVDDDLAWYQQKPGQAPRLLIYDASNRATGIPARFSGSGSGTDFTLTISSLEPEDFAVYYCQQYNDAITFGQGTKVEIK next
OUT: 0.014

IN: Now this one: STLM208 (antibody, V domains shown) VH: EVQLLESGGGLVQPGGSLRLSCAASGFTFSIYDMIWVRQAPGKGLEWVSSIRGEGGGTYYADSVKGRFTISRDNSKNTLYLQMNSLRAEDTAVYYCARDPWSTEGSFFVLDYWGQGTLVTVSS VL: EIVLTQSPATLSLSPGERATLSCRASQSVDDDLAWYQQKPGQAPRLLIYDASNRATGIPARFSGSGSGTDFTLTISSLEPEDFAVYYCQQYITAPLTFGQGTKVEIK
OUT: 0.005
